- System name: CRBN and Helios (IKZF2) (Homo sapiens, UniProt Q96SW2+Q9UKS7)
- Construct: His (N); Strep (N)
- Sequence (Q9UKS7 whole entry, one chain of several): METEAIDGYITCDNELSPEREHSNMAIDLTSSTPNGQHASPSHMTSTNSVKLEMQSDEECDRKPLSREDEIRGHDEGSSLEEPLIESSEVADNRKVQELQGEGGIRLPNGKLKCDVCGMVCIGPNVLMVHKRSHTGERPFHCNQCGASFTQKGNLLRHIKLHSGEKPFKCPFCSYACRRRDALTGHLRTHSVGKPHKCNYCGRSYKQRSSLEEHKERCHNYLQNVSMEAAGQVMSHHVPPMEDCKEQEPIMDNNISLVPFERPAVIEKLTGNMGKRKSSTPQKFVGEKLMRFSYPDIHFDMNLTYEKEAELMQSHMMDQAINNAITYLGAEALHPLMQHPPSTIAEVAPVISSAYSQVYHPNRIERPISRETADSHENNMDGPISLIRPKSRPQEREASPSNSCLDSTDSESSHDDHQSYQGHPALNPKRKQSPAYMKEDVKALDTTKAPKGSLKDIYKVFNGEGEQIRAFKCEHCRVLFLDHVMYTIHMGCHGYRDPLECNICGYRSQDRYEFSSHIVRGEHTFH
- Test description: TR-FRET dimerization assay (CRBN-IKZF2 ternary complex formation)
- Format: binding
- Measurement parameters: compound concentration 6.6667E−06; n=1
Measured property: TR-FRET-IKZF2 (Normalized to CC-885)
Please give only the number in your answer, with no unit.

Measured TR-FRET-IKZF2 (Normalized to CC-885) of O=C1CCC(N2C(=O)C=C(Nc3cccc(CNC(=O)NCc4ccccc4)c3)C2=O)C(=O)N1 (stereo not shown) [Compound 81] : 0.585

Measured TR-FRET-IKZF2 (Normalized to CC-885) of Cc1cc(CNC(=O)NC(C)c2cccc(NC3=CC(=O)N(C4CCC(=O)NC4=O)C3=O)c2)ccc1Cl (stereo not shown) [Compound 120] : 1.011

Measured TR-FRET-IKZF2 (Normalized to CC-885) of Cc1ccc(NC(=O)NCCCNC2=CC(=O)N(C3CCC(=O)NC3=O)C2=O)cc1Cl (stereo not shown) [Compound 47] : 0.230

Measured TR-FRET-IKZF2 (Normalized to CC-885) of Cc1ccc(CNC(=O)Cc2cccc(NC3=CC(=O)N(C4CCC(=O)NC4=O)C3=O)c2)cc1Cl (stereo not shown) [Compound 123] : 1.087

Measured TR-FRET-IKZF2 (Normalized to CC-885) of CCOC(=O)CN(C)C1=CC(=O)N(C2CCC(=O)NC2=O)C1=O (stereo not shown) [Compound 17] : 0.032

Measured TR-FRET-IKZF2 (Normalized to CC-885) of Cc1ccc(NC(=O)N2Cc3ccc(NC4=CC(=O)N(C5CCC(=O)NC5=O)C4=O)cc3C2)cc1Cl (stereo not shown) [Compound 107] : 0.066

Measured TR-FRET-IKZF2 (Normalized to CC-885) of Cc1ccc(NC(=O)N2CCc3ccc(NC4=CC(=O)N(C5CCC(=O)NC5=O)C4=O)cc3C2)cc1Cl (stereo not shown) [Compound 109] : 0.640

* * *

- System name: IKZF1 (Homo sapiens)
- Construct: expressed in transfected cells; host or cells: Flp-In 293
- Sequence (Q13422 83-213 isoform Q13422-7 limits assumed): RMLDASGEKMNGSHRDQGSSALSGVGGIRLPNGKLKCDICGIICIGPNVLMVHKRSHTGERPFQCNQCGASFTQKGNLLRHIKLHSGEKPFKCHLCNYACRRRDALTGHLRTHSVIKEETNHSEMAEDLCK
- Sequence (Q96SW2 whole entry partner): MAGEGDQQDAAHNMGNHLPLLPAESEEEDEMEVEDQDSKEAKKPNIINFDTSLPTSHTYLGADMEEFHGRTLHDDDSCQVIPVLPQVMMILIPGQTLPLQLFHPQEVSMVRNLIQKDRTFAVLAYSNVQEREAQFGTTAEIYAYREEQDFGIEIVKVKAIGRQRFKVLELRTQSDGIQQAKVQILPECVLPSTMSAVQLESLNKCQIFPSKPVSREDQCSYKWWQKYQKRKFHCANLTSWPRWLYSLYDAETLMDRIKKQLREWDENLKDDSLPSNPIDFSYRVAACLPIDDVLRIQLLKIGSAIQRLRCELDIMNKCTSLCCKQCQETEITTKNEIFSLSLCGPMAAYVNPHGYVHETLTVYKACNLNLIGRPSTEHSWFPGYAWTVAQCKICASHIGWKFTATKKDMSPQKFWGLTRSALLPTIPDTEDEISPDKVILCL
- Sequence (Q16531 2-1140 partner limits assumed): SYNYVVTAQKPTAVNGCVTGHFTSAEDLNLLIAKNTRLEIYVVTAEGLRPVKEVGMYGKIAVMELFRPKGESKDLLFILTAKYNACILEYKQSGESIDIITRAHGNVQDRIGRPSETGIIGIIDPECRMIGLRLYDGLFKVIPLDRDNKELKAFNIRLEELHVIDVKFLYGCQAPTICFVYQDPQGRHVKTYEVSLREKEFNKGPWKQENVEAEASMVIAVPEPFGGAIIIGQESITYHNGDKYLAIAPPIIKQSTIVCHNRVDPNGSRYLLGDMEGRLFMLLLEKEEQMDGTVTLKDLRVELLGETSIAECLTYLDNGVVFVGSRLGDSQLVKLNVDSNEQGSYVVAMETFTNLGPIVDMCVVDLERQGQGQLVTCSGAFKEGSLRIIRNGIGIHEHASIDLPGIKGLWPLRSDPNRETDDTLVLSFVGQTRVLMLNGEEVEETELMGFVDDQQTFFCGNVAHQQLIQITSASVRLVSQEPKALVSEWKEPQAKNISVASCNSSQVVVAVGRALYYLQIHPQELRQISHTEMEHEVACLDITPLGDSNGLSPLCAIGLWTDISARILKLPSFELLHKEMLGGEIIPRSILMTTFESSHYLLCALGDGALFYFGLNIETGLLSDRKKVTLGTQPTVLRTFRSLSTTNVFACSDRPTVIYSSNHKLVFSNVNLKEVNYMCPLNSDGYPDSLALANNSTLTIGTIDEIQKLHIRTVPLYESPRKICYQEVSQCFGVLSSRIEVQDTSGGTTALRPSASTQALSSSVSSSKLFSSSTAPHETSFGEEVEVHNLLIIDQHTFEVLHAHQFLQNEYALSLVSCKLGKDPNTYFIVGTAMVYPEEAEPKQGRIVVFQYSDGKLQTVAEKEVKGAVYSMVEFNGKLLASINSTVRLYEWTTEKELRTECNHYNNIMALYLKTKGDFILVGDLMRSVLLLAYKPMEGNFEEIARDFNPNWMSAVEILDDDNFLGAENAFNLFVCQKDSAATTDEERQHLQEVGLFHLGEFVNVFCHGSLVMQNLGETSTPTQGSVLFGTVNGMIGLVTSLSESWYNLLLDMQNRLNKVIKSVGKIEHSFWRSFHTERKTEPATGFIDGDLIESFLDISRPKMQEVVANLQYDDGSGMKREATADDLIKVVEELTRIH
- Test description: Cellular degradation assay, eGFP-IKZF1Δ fusion with mCherry reporter in Flp-In 293 cells
- Assay type: cell-based
- Measurement parameters: compound concentration 2.00E−06; 5 h incubation; n=1
Returns: string. Value is satisfied if measured IKZF1 GFP/RFP Relative Abundance is below 0.1, and not satisfied if it is greater than or equal to it.

Is the reported IKZF1 GFP/RFP Relative Abundance for CCOC(=O)CNC1=CC(=O)N(C2CCC(=O)NC2=O)C1=O (stereo not drawn) strictly below 0.1?
not satisfied

Is the reported IKZF1 GFP/RFP Relative Abundance for O=C1CCC(N2C(=O)C=C(Nc3cccc(CNC(=O)Nc4ccccc4)c3)C2=O)C(=O)N1 (stereo not drawn) strictly below 0.1?
satisfied

Is the reported IKZF1 GFP/RFP Relative Abundance for O=C1CCC(N2C(=O)C=C(Nc3ccc4cn[nH]c4c3)C2=O)C(=O)N1 (stereo not drawn) strictly below 0.1?
not satisfied

Is the reported IKZF1 GFP/RFP Relative Abundance for CN(C)C(=O)c1ccc(NC2=CC(=O)N(C3CCC(=O)NC3=O)C2=O)cc1 (stereo not drawn) strictly below 0.1?
not satisfied

Is the reported IKZF1 GFP/RFP Relative Abundance for Cc1ccc(NC(=O)NC(C)(C)c2cccc(NC3=CC(=O)N(C4CCC(=O)NC4=O)C3=O)c2)cc1Cl (stereo not drawn) strictly below 0.1?
not satisfied

Is the reported IKZF1 GFP/RFP Relative Abundance for Cc1ccc(NC(=O)NCCNC2=CC(=O)N(C3CCC(=O)NC3=O)C2=O)cc1Cl (stereo not drawn) strictly below 0.1?
not satisfied
